- System: ChAT activity in spinal cord cultures
- run-description: Effect of indolocarbazole esters on ChAT activity in dissociated spinal cord cultures
- Assay type: cell-based, rat
- run-parameters: 500 nM
The following molecules are listed with their measured Spinal Cord ChAT Activity (% of Control) 500 nM values.
measured-metric: Spinal Cord ChAT Activity (% of Control) 500 nM

molecule: COC1(COC(=O)C(N)Cc2cnc[nH]2)CC2OC1(C)n1c3ccccc3c3c4c(c5c6ccccc6n2c5c31)C(=O)NC4.Cl.Cl (stereo not shown) [Example 9, (I-5) Histidinate Dihydrochloride]
measured-result: 158 % of Control

molecule: COC1(COC(=O)CCN)CC2OC1(C)n1c3ccccc3c3c4c(c5c6ccccc6n2c5c31)C(=O)NC4.Cl (stereo not drawn) [Example 11, (I-5)-β-Alaninate Hydrochloride]
measured-result: 138 % of Control

molecule: COC1(COC(=O)CCNC(=O)C(N)CCCCN)CC2OC1(C)n1c3ccccc3c3c4c(c5c6ccccc6n2c5c31)C(=O)NC4.Cl.Cl (stereo not drawn) [Example 14, (I-5)-Lysyl-β-Alaninate Dihydrochloride]
measured-result: 121 % of Control

molecule: COC1(COC(=O)CCC(=O)O)CC2OC1(C)n1c3ccccc3c3c4c(c5c6ccccc6n2c5c31)C(=O)NC4 (stereo not shown) [Example 4, (I-5)-Hydrogen Succinate]
measured-result: 150 % of Control

molecule: COC1(COC(=O)C(C)N)CC2OC1(C)n1c3ccccc3c3c4c(c5c6ccccc6n2c5c31)C(=O)NC4.Cl (stereo not shown) [Example 3, (I-5)-Alaninate Hydrochloride]
measured-result: 151 % of Control

molecule: COC1(COC(=O)CN(C)C)CC2OC1(C)n1c3ccccc3c3c4c(c5c6ccccc6n2c5c31)C(=O)NC4.Cl (stereo not shown)
measured-result: 132 % of Control

molecule: COC1(COC(=O)C(N)CCCNC(=N)N)CC2OC1(C)n1c3ccccc3c3c4c(c5c6ccccc6n2c5c31)C(=O)NC4.Cl.Cl (stereo not shown) [Example 10, (I-5)-Argininate Dihydrochloride]
measured-result: 128 % of Control

Data provenance is patent USRE38332E1.
